The origin of these recorded values is patent US11970448B2.

# targetOfAssay: recominbant human tryptase, beta, from lung (Homo sapiens, UniProt P20231)
# Construct: purchased Promega or Enzo Life Sciences G5631 or BML-SE418
# Sequence (P20231 31-275): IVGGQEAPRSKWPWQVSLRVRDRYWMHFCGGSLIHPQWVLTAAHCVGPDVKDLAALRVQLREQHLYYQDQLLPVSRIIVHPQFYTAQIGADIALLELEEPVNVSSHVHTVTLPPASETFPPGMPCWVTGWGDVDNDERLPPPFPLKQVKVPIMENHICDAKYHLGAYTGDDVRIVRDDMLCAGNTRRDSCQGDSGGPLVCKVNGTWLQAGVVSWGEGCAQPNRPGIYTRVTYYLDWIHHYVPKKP
# methodNotes: Inhibition of tryptase activity by monomers and multimers (Boc-Gln-Ala-Arg-AMC fluorescence)
# Type: biochemical
# experimentalConditions: monomers against tryptase; read-out: IC50 range group of additional monomers (boronic acid, benzooxaborole, ligands)
property: IC50

compound: NCc1ccc2c(c1)C1(CCN(C(=O)c3cccc(-c4cccc(B(O)O)c4)c3)CC1)CO2
assayResult: 1 to 10 µM
--
compound: NCc1ccc2c(c1)C1(CCN(C(=O)c3ccc(CO)c(O)c3)CC1)CO2
assayResult: 0.0001 to 1 µM
--
compound: COc1cc(C(=O)N2CCC3(CC2)COc2ccc(CN)cc23)cc(O)c1O
assayResult: 0.0001 to 1 µM
--
compound: Cc1cc(C(=O)N2CCC3(CC2)COc2ccc(CN)cc23)cc(CO)c1O
assayResult: 0.0001 to 1 µM
--
compound: CC(C)(C)ONC(=O)c1ccc(C(=O)N2CCC(c3cccc(CN)c3)CC2)cc1O
assayResult: 1 to 10 µM
--
compound: NCc1cccc(C2CCN(C(=O)C3CC4CCC3C(O)C4O)CC2)c1 (racemic) [T142ENDOSYN]
assayResult: 10 to 65 µM
--
compound: NCc1cccc(C2CCN(C(=O)Cc3cc(=O)oc4cc(O)c(O)cc34)CC2)c1
assayResult: 1 to 10 µM

* * *

Recorded measurements of pIC50, one per entry
# targetOfAssay: recominbant human tryptase, beta, from lung (Homo sapiens, UniProt P20231)
# Construct: purchased Promega or Enzo Life Sciences G5631 or BML-SE418
# methodNotes: Inhibition of tryptase activity by monomers and multimers (Boc-Gln-Ala-Arg-AMC fluorescence)
# Type: biochemical
# experimentalConditions: monomers against tryptase, Table 5; read-out: Monomer IC50 range
pIC50: −log10 of the molar value.
property: pIC50

compound: NCc1cccc(C2CCN(C(=O)c3ccc(C(N)=O)c(O)c3)CC2)c1
property: pIC50
assayResult: 5.00 to 6.00
--
compound: NCc1cccc(C2CCN(C(=O)Cc3cc(=O)oc4cc(O)c(O)cc34)CC2)c1
property: pIC50
assayResult: 5.00 to 6.00
--
compound: NCc1cccc(C2CCN(C(=O)c3cccc(OCCC(=O)N4C[C@@H](O)[C@@H](O)C4)c3)CC2)c1
property: pIC50
assayResult: 6.00 to 10.00
--
compound: NCc1cccc(C2CCN(C(=O)/C=C/c3cccc(B(O)O)c3)CC2)c1
property: pIC50
assayResult: 5.00 to 6.00
--
compound: NCc1cccc(C2CCN(C(=O)c3cccc(NC(=O)c4cccc(O)c4O)c3)CC2)c1
property: pIC50
assayResult: 6.00 to 10.00
--
compound: CONC(=O)c1ccc(C(=O)N2CCC(c3cccc(CN)c3)CC2)cc1O [T75A]
property: pIC50
assayResult: 6.00 to 10.00
--
compound: NCc1cccc(C2CCN(C(=O)/C=C\c3ccc(O)c(O)c3)CC2)c1 [T24cis]
property: pIC50
assayResult: 5.00 to 6.00
--
compound: NCc1cccc(C2CCN(C(=O)c3cccc(NC(=O)C(O)C4(O)CCC4)c3)CC2)c1 (centres unmarked)
property: pIC50
assayResult: 6.00 to 10.00

* * *

Recorded measurements of IC50, one per entry
# targetOfAssay: recominbant human tryptase, beta, from lung (Homo sapiens, UniProt P20231)
# Construct: purchased Promega or Enzo Life Sciences G5631 or BML-SE418
# methodNotes: Inhibition of tryptase activity by monomers and multimers (Boc-Gln-Ala-Arg-AMC fluorescence)
# Assay type: biochemical
# experimentalConditions: monomers against tryptase, Table 5; read-out: Monomer IC50 range
property: IC50

compound: NCc1cccc(C2CCN(C(=O)/C=C/c3ccc(B(O)O)cc3)CC2)c1
assayResult: 1000 to 10000 nM

compound: NCc1cccc(C2CCN(C(=O)c3cccc(O)c3)CC2)c1 [T53B]
assayResult: 1000 to 10000 nM

compound: NCc1ccc(F)c(C2CCN(C(=O)c3cccc4cc(O)c(O)cc34)CC2)c1 [T27F]
assayResult: 1000 to 10000 nM

compound: NCc1ccc2c(c1)C1(CCN(C(=O)c3cccc(-c4cccc(B(O)O)c4)c3)CC1)CO2
assayResult: 1000 to 10000 nM

compound: NCc1cccc(C2CCN(C(=O)c3cc(O)c(O)cc3O)CC2)c1
assayResult: 10000 to 65000 nM

compound: NCc1cccc(C2CCN(C(=O)c3cc4cc(O)ccc4[nH]3)CC2)c1 [T31A]
assayResult: 0.1 to 1000 nM

compound: NCc1cccc(C2CCN(C(=O)/C=C/c3ccc(CO)c(O)c3)CC2)c1
assayResult: 0.1 to 1000 nM

compound: NCc1cccc(C2CCN(C(=O)c3cccc(O)c3O)CC2)c1
assayResult: 1000 to 10000 nM

compound: NCc1cccc(C2CCN(C(=O)Cc3ccc(O)c(F)c3)CC2)c1 [T54A]
assayResult: 1000 to 10000 nM
